Entry source: patent US7897593B2

// reported Ki for each item listed
assayed-system: purified integrase (Human immunodeficiency virus type 1 group M subtype B, UniProt P12497)
Construct: Recombinant integrase (0.26 ng) was incubated with the beads
measurement-description: HIV-Integrase binding assay (competition with radiolabeled integrase inhibitor)
test-context: competition with [3H]-labeled integrase inhibitor; Cheng and Prusoff

molecule	Ki
Cc1nnc(C(=O)N2CCC3(C2)OCCn2c3nc(C(=O)NCc3ccc(F)cc3)c(O)c2=O)o1 (stereo not shown)	1 to 3 nM
COC(=O)N1CCC2(CC1)OCCCn1c2nc(C(=O)NCc2ccc(F)cc2)c(O)c1=O	1 to 3 nM
CCOC(=O)C(=O)N1CCC2(C1)OCCn1c2nc(C(=O)NCc2ccc(F)cc2-n2ncnc2C)c(O)c1=O (stereo not shown)	3 to 50 nM

Endpoint output: Ki of `CN(C)S(=O)(=O)N1CCC2(CC1)OCCCn1c2nc(C(=O)NCc2ccc(F)cc2)c(O)c1=O` . Value?
1 to 3 nM

Endpoint output: Ki of Cc1ncnn1-c1cc(F)ccc1CNC(=O)c1nc2n(c(=O)c1O)CCCOC21CCN(S(C)(=O)=O)CC1 [Example 73] . Value?
3 to 50 nM

Endpoint output: Ki of `CC(=O)N1CCC2(CC1)COCCn1c2nc(C(=O)NCc2ccc(F)cc2-n2ncnc2C)c(O)c1=O` . Value?
3 to 50 nM

Endpoint output: Ki of `Cc1ncnn1-c1cc(F)ccc1CNC(=O)c1nc2n(c(=O)c1O)CCCOC21CCN(C(=O)OCc2ccccc2)CC1` . Value?
3 to 50 nM
